assay: Stability in buffer at various pH values; format: physicochemical; details: pH 4, 37° C., 4 h
Counter-ions that a name gives are not always drawn.
Readout: % test substance after 4 h [F(t = 4 h) × 100/F(t = 0 h)] (%)
Numbers only; they are read as %.

IN: // % test substance after 4 h [F(t = 4 h) × 100/F(t = 0 h)] lookup, key: "N#Cc1c(N)nc(SCc2csc(-c3ccc(Cl)cc3)n2)c(C#N)c1-c1ccc(OCCOC(=O)CCC(=O)O)cc1"
OUT: 100

IN: // % test substance after 4 h [F(t = 4 h) × 100/F(t = 0 h)] lookup, key: N#Cc1c(N)nc(SCc2csc(-c3ccc(Cl)cc3)n2)c(C#N)c1-c1ccc(OCCOC(=O)[C@@H](N)CN)cc1 [Example 40, dihydrochloride]
OUT: 99

IN: // % test substance after 4 h [F(t = 4 h) × 100/F(t = 0 h)] lookup, key: N#Cc1c(N)nc(SCc2csc(-c3ccc(Cl)cc3)n2)c(C#N)c1-c1ccc(OCCOC(=O)[C@@H](N)CCCCN)cc1 [Example 14, dihydrochloride]
OUT: 100

IN: // % test substance after 4 h [F(t = 4 h) × 100/F(t = 0 h)] lookup, key: N#Cc1c(N)nc(SCc2csc(-c3ccc(Cl)cc3)n2)c(C#N)c1-c1ccc(OCCOC(=O)[C@@H](N)CCCN)cc1 [Example 22, dihydrochloride]
OUT: 100

* * *

Field: Heart rate decrease. Provide a value for each of the compounds that follow.
tested on: heart rate of anesthetized rats; test: Influence on the heart rate of anesthetized rats; type: in vivo; conditions: maximum decrease in the first 30 min after i.v. bolus of 100 μg/kg of (A) or equivalent dosages; anesthetized male Wistar rats
Counter-ions that a name gives are not always drawn.
State the result as a value with its unit after it.

IN: // Heart rate decrease lookup, key: N#Cc1c(N)nc(SCc2csc(-c3ccc(Cl)cc3)n2)c(C#N)c1-c1ccc(OCCOC(=O)[C@@H](N)CCCN)cc1 [Example 22, dihydrochloride]
OUT: 13%

IN: // Heart rate decrease lookup, key: "CN(C)CC(=O)OCCOc1ccc(-c2c(C#N)c(N)nc(SCc3csc(-c4ccc(Cl)cc4)n3)c2C#N)cc1"
OUT: 21%

IN: // Heart rate decrease lookup, key: "N#Cc1c(N)nc(SCc2csc(-c3ccc(Cl)cc3)n2)c(C#N)c1-c1ccc(OCCOP(=O)(O)O)cc1"
OUT: 16%

IN: // Heart rate decrease lookup, key: "N#Cc1c(N)nc(SCc2csc(-c3ccc(Cl)cc3)n2)c(C#N)c1-c1ccc(OCCOC(=O)CN)cc1"
OUT: 21%

IN: // Heart rate decrease lookup, key: N#Cc1c(N)nc(SCc2csc(-c3ccc(Cl)cc3)n2)c(C#N)c1-c1ccc(OCCOC(=O)CCC(=O)O)cc1 [Example 19, hydrochloride]
OUT: 18%

IN: // Heart rate decrease lookup, key: N#Cc1c(N)nc(SCc2csc(-c3ccc(Cl)cc3)n2)c(C#N)c1-c1ccc(OCCO)cc1 [compound (A), reference compound]
OUT: 24%

* * *

experiment: Determination of the solubility (24 h shaking at room temperature, ultracentrifugation, HPLC); type: physicochemical; details: saline or isotonic, thermodynamic from solid, 5% strength aqueous dextrose solution
Where a name gives a salt, the structure may show the parent alone.
Field: solubility at 24 h. Provide a value for each of the compounds that follow.

IN: // solubility at 24 h lookup, key: N#Cc1c(NC(=O)CCCN)nc(SCc2csc(-c3ccc(Cl)cc3)n2)c(C#N)c1-c1ccc(OCCOC(=O)CCCN)cc1 [Example 25, dihydrochloride]
OUT: 730 µg/mL

IN: // solubility at 24 h lookup, key: N#Cc1c(N)nc(SCc2csc(-c3ccc(Cl)cc3)n2)c(C#N)c1-c1ccc(OCCOC(=O)[C@@H](N)CCN)cc1 [Example 24, dihydrochloride]
OUT: > 500 µg/mL

IN: // solubility at 24 h lookup, key: N#Cc1c(N)nc(SCc2csc(-c3ccc(Cl)cc3)n2)c(C#N)c1-c1ccc(OCCOC(=O)[C@@H](N)CN)cc1 [Example 40, dihydrochloride]
OUT: > 500 µg/mL

IN: // solubility at 24 h lookup, key: N#Cc1c(N)nc(SCc2csc(-c3ccc(Cl)cc3)n2)c(C#N)c1-c1ccc(OCCOC(=O)[C@H](N)CCCN)cc1 [Example 39, dihydrochloride]
OUT: > 500 µg/mL

IN: // solubility at 24 h lookup, key: N#Cc1c(NC(=O)CCN)nc(SCc2csc(-c3ccc(Cl)cc3)n2)c(C#N)c1-c1ccc(OCCOC(=O)CCN)cc1 [Example 26, dihydrochloride]
OUT: > 500 µg/mL

* * *

assay: Stability in buffer at various pH values; format: physicochemical; settings: pH 4, 37° C., 24 h
Where a name gives a salt, the structure may show the parent alone.
Readout: % test substance after 24 h [F(t = 24 h) × 100/F(t = 0 h)] (%)
Numbers only; they are read as %.

IN: // % test substance after 24 h [F(t = 24 h) × 100/F(t = 0 h)] lookup, key: N#Cc1c(N)nc(SCc2csc(-c3ccc(Cl)cc3)n2)c(C#N)c1-c1ccc(OCCOC(=O)[C@@H](N)CN)cc1 [Example 40, dihydrochloride]
OUT: 94

IN: // % test substance after 24 h [F(t = 24 h) × 100/F(t = 0 h)] lookup, key: CC(C)[C@H](N)C(=O)OCCOc1ccc(-c2c(C#N)c(N)nc(SCc3csc(-c4ccc(Cl)cc4)n3)c2C#N)cc1 [Example 23, dihydrochloride]
OUT: 99

IN: // % test substance after 24 h [F(t = 24 h) × 100/F(t = 0 h)] lookup, key: CN(C)CC(=O)Nc1nc(SCc2csc(-c3ccc(Cl)cc3)n2)c(C#N)c(-c2ccc(OCCOC(=O)CN(C)C)cc2)c1C#N [Example 34]
OUT: 97

* * *

assay: Stability in buffer at various pH values; format: physicochemical; settings: pH 7.4, 37° C., 4 h
Counter-ions that a name gives are not always drawn.
Readout: % test substance after 4 h [F(t = 4 h) × 100/F(t = 0 h)] (%)
Numbers only; they are read as %.

IN: // % test substance after 4 h [F(t = 4 h) × 100/F(t = 0 h)] lookup, key: "CN(C)CC(=O)Nc1nc(SCc2csc(-c3ccc(Cl)cc3)n2)c(C#N)c(-c2ccc(OCCOC(=O)CN(C)C)cc2)c1C#N"
OUT: 100

IN: // % test substance after 4 h [F(t = 4 h) × 100/F(t = 0 h)] lookup, key: N#Cc1c(N)nc(SCc2csc(-c3ccc(Cl)cc3)n2)c(C#N)c1-c1ccc(OCCOC(=O)[C@@H](N)CN)cc1 [Example 40, dihydrochloride]
OUT: 90

IN: // % test substance after 4 h [F(t = 4 h) × 100/F(t = 0 h)] lookup, key: "CC(C)[C@H](N)C(=O)OCCOc1ccc(-c2c(C#N)c(NC(=O)CCCN(C)C)nc(SCc3csc(-c4ccc(Cl)cc4)n3)c2C#N)cc1"
OUT: 97

* * *

Field: % test substance after 4 h [F(t = 4 h) × 100/F(t = 0 h)]. Provide a value for each of the molecules that follow.
assay: Stability in buffer at various pH values; type: physicochemical; details: pH 8, 37° C., 4 h
Structures can show the parent of a compound that is named as a salt.
Numbers only; they are read as %.

IN: // % test substance after 4 h [F(t = 4 h) × 100/F(t = 0 h)] lookup, key: N#Cc1c(N)nc(SCc2csc(-c3ccc(Cl)cc3)n2)c(C#N)c1-c1ccc(OCCOC(=O)[C@@H](N)CCCCN)cc1 [Example 14, dihydrochloride]
OUT: 96

IN: // % test substance after 4 h [F(t = 4 h) × 100/F(t = 0 h)] lookup, key: "N#Cc1c(N)nc(SCc2csc(-c3ccc(Cl)cc3)n2)c(C#N)c1-c1ccc(OCCOC(=O)CN)cc1"
OUT: 94

IN: // % test substance after 4 h [F(t = 4 h) × 100/F(t = 0 h)] lookup, key: "CN(C)CC(=O)OCCOc1ccc(-c2c(C#N)c(N)nc(SCc3csc(-c4ccc(Cl)cc4)n3)c2C#N)cc1"
OUT: 90

IN: // % test substance after 4 h [F(t = 4 h) × 100/F(t = 0 h)] lookup, key: N#Cc1c(N)nc(SCc2csc(-c3ccc(Cl)cc3)n2)c(C#N)c1-c1ccc(OCCOC(=O)[C@@H](N)Cc2ccccc2)cc1 [Example 16, hydrochloride]
OUT: 100

IN: // % test substance after 4 h [F(t = 4 h) × 100/F(t = 0 h)] lookup, key: "N#Cc1c(N)nc(SCc2csc(-c3ccc(Cl)cc3)n2)c(C#N)c1-c1ccc(OCCOP(=O)(O)O)cc1"
OUT: 100

* * *

Field: % test substance after 4 h [F(t = 4 h) × 100/F(t = 0 h)]. Provide a value for each of the molecules that follow.
assay: Stability in buffer at various pH values; type: physicochemical; settings: pH 7.4, 37° C., 4 h
Structures can show the parent of a compound that is named as a salt.
Numbers only; they are read as %.

IN: // % test substance after 4 h [F(t = 4 h) × 100/F(t = 0 h)] lookup, key: N#Cc1c(NC(=O)CCN)nc(SCc2csc(-c3ccc(Cl)cc3)n2)c(C#N)c1-c1ccc(OCCOC(=O)CCN)cc1 [Example 26, dihydrochloride]
OUT: 11

IN: // % test substance after 4 h [F(t = 4 h) × 100/F(t = 0 h)] lookup, key: CC(C)[C@H](N)C(=O)OCCOc1ccc(-c2c(C#N)c(N)nc(SCc3csc(-c4ccc(Cl)cc4)n3)c2C#N)cc1 [Example 23, dihydrochloride]
OUT: 100

IN: // % test substance after 4 h [F(t = 4 h) × 100/F(t = 0 h)] lookup, key: N#Cc1c(N)nc(SCc2csc(-c3ccc(Cl)cc3)n2)c(C#N)c1-c1ccc(OCCOC(=O)[C@@H](N)CCCNC(=N)N)cc1 [Example 38, trihydrochloride]
OUT: 100

IN: // % test substance after 4 h [F(t = 4 h) × 100/F(t = 0 h)] lookup, key: N#Cc1c(NC(=O)CCCN)nc(SCc2csc(-c3ccc(Cl)cc3)n2)c(C#N)c1-c1ccc(OCCOC(=O)CCCN)cc1 [Example 25, dihydrochloride]
OUT: 41
